Tested on: TK-10 renal
ASSAY: NCI-60 one-dose screen, 48 h (100 = growth as untreated, 0 = no growth, -100 = all killed)
COND: 10 µM unless noted
Compounds without any hit were thinned out: in the full panel of roughly 83,000, 20% have a hit.
PARAMETER: growth (%)
One number for each entry, in %.

COMPOUND	growth / %
C[C@@H]1C[C@@]2(C)[C@@H](CC[C@@H]3[C@@H]2CC[C@]2(C)C(=O)CC[C@@H]32)CC1=O	94
CC1[C@H](C)OC(=O)CC(O)CC(O)CC(O)CCC(O)C(O)C[C@]2(O)CC(O)C(C(=O)O)C(CC(OC3O[C@H](C)[C@@H](O)[C@H](N)[C@@H]3O)/C=C/C=C/C=C/C=C/CC/C=C/C=C/[C@H](C)[C@H]1O)O2 (stereo partly specified)	123
COc1ccc(/C=C\c2cc(OC)c(OC)c(OC)c2)c(NS(=O)(=O)c2ccc(C)cc2)c1O	65.2
CC(=O)O[C@H](C[C@H](C(C)C)N(C)C(=O)[C@@H](NC(=O)[C@H]1CCCCN1C)C(C)C)c1nc(C(=O)N[C@@H](Cc2ccccc2)C[C@H](C)C(=O)O)c(CCOCc2ccccc2)s1	31.3
COc1ccc2nc(NC(=O)COc3cc(/C=C\c4cc(OC)c(OC)c(OC)c4)ccc3OC)sc2c1	23.6
CC1CCCC(C[N+](C)(C)C)C1=O (stereo unspecified)	106
CC(=O)O[C@H]1C(=O)[C@@]2(C)[C@H]([C@H](OC(=O)c3ccccc3)[C@]3(O)C[C@H](OC(=O)[C@H](OC(=O)OC[C@H]4COC(C)(C)O4)[C@@H](NC(=O)c4ccccc4)c4ccccc4)C(C)=C1C3(C)C)[C@]1(OC(C)=O)CO[C@@H]1C[C@@H]2O	25.6
CC12CCC3C(CCC4=CC(=O)CCC43CF)C1CCC2=O (stereo unspecified)	115
CCN(CC)CCOC(=O)C(OC(C)C)(c1ccccc1)c1ccccc1	89
CC12CCC3C(CCC4Cc5[nH]c6ccccc6c5CC43C)C1CCC2O (stereo unspecified)	57.3

Dear colleague, could you send me growth for each of the items below? Thanks.
1. CCCCN(CCCC)P(=O)(Oc1ccccc1)Oc1ccccc1
2. [Cl][Hg][c]1cc(Br)cc(Br)c1
3. C=CC12CCN(CC1)C(C(O)c1ccnc3ccc(OC)cc13)C2 (stereo unspecified)

[78.5, 121, 88.4]

Dear colleague, could you send me growth for each of the items below? Thanks.
1. CCCC(C)C1(CC)C(=O)NC(=O)N(C)C1=O (stereo unspecified)
2. O=C(O)C1C(C(=O)O)C2(Cl)C(Cl)=C(Cl)C1(Cl)C2(Cl)Cl.[Hg] (stereo unspecified)
3. CC[C@H](C)[C@H](NC(=O)[C@H]1CCCCN1C)C(=O)N(C)[C@H](C[C@@H](OC(C)=O)c1nc(C(=O)N[C@@H](Cc2ccccc2)C[C@H](C)C(=O)OC)cs1)C(C)C

1: 92.6; 2: 144; 3: 18.1

----------
Tested on: SF-295 CNS
ASSAY: NCI-60 one-dose screen, 48 h (100 = growth as untreated, 0 = no growth, -100 = all killed)
COND: 10 µM unless noted
Description: Cells are grown in 96 well plates and exposed to the test compound for 48 hours. Compounds are tested at a single concentration, which is 10^-5 M for most compounds. The reported endpoint is percent growth (GI% or GIPRCNT), where numbers from 0 - 100% represent growth inhibition, and numbers from -100% - 0 represent cell death. For example, a value of 40 represents 60% growth inhibition. A value of 0 means no net growth occurred over the course of the experiment. […]
This is part of a sample that, as a whole, favours compounds with a hit. Of some 83,000 tested, about 20% had one in any assay. The source made the active and inactive calls. The calls were made as follows: active = growth percent below 10; inactive = the rest.
PARAMETER: growth

The examples below pair each entry with its known result.
COMPOUND	MEASURED_TARGET	RESULT
CCC(O)(CN)c1ccccc1 (stereo unspecified)	SF-295 CNS	92.6% (inactive)
O=C(CCCCCNC1=CC(=O)c2ccccc2C1=O)NCCC[Te]c1ccccc1	SF-295 CNS	-32.5% (active)
CCCCNC(c1ccc(Cl)cc1)C(O)c1ccc(Cl)cc1 (stereo unspecified)	SF-295 CNS	41.3% (inactive)
Cc1ccc(C(=O)NCCCOc2ccc(N)cc2Cl)cc1S(=O)(=O)F	SF-295 CNS	86.3% (inactive)
C1CCC([PH+](C2CCCCC2)C2CCCCC2[PH+](C2CCCCC2)C2CCCCC2)CC1.O=C(C1[CH-]CCCC1)C1CCCC[N-]1.[Au] (stereo unspecified)	SF-295 CNS	-46.8% (active)
CCCCCCCCCCCCNC(c1ccccc1)C(O)c1ccccc1 (stereo unspecified)	SF-295 CNS	107% (inactive)

Dear colleague, could you send me growth for each of the items below? Thanks.
1. Nc1c(F)cc(-c2nc3cc(F)ccc3[se]2)cc1Br
2. O=C1OCCC1Br (stereo unspecified)
3. CCOC(=O)CCN(C)C1=Nc2ccc(Cl)cc2C(c2ccccc2)=[N+]([O-])C1
4. c1cnc2[nH]cc(-c3csc(-c4cn(CCCCN5CCCCC5)c5ccccc45)n3)c2c1
5. C[n+]1c(/C=C/c2ccc(N(CCCl)CCCl)cc2)sc2ccccc21

1. 74.5% (inactive)
2. 105% (inactive)
3. 102% (inactive)
4. 94.8% (inactive)
5. 55.7% (inactive)
